tested on: A549/ATCC NSCLC; experiment: NCI-60 one-dose screen, 48 h; details: 10 µM
About 83,000 compounds went through this panel and 20% of them were active in at least one assay; those are over-represented in the sample as a whole. Active and inactive are the calls of the source. Rule for the calls: active = growth percent below 10; inactive = the rest.
Respond with a class label; see active, inactive

[Q] So what was the verdict on CCOC(=O)C1=C(Nc2ccccc2)C(=O)OC12C(=O)Nc1ccccc12 (centres undefined) in this test?
[A] inactive

New cases:
[Q] So what was the verdict on "C=CC[Se]C(=O)c1cncc(C(=O)[Se]CC=C)c1" in this test?
[A] active

[Q] So what was the verdict on "C[C@H]1[C@H](OC(=O)CCC(=O)Nc2cnccn2)O[C@@H]2OC3(C)CC[C@H]4[C@H](C)CC[C@@H]1[C@@]24OO3" in this test?
[A] inactive

[Q] So what was the verdict on "C#CCCCN(CCNc1ccnc2cc(Cl)ccc12)C(=O)CCC(=O)O[C@@H]1O[C@@H]2OC3(C)CC[C@H]4[C@H](C)CC[C@@H]([C@H]1C)[C@@]24OO3" in this test?
[A] inactive

----------
Listed here are molecules together with their documented growth.
system: HL-60(TB) leukemia; assay: NCI-60 one-dose screen, 48 h (100 = growth as untreated, 0 = no growth, -100 = all killed); conditions: 10 µM unless noted
The panel holds about 83,000 compounds, 20% with a hit somewhere; the sample as a whole holds those more often.
Reply with just the number (in %).

Worked cases, growth given:
// sample O=C1CC(c2ccc(I)cc2)OC2C=Cc3ccccc3C12 (stereo not drawn) , its growth was 89

// sample "CN(C)c1nc(NCCNS(=O)(=O)c2ccc(C(=O)/C=C/c3ccc(Cl)cc3)cc2)nc(Nc2ccc(F)cc2)n1" , its growth was -42.7

From here, focus on the item given below.
// sample "CCCCCCCOc1ccc(S(=O)(=O)Nc2ccc(C)c(F)c2C(=O)O)cc1" , its growth was 89.8

----------
Listed here are molecules together with their documented growth.
test system: SNB-19 CNS; assay: NCI-60 one-dose screen, 48 h (100 = growth as untreated, 0 = no growth, -100 = all killed); settings: 10 µM
This is part of a sample that, as a whole, favours compounds with a hit. Of some 83,000 tested, about 20% had one in any assay.
Reply with just the number (in %).

Worked cases, growth given:
// sample "COC(=O)CCn1c(-c2ccc(-n3cc(-c4ccc(O[C@H]5O[C@@H]6OC7(C)CC[C@H]8[C@H](C)CC[C@@H]([C@H]5C)[C@@]68OO7)cc4)nn3)cc2)nc2ccccc21" , its growth was 24.5

// sample "COCCOCCOCCOc1ccc(-n2cc(CCCN(CCNc3ccnc4cc(Cl)ccc34)C(=O)CCC(=O)O[C@@H]3O[C@@H]4OC5(C)CC[C@H]6[C@H](C)CC[C@@H]([C@H]3C)[C@@]46OO5)nn2)cc1" , its growth was 56.3

From here, focus on the item given below.
// sample "N#C[Se]CC(=O)Nc1cccc(C(F)(F)F)c1" , its growth was -88.1

----------
tested on: NCI-H522 lung; experiment: NCI-60 one-dose screen, 48 h (100 = growth as untreated, 0 = no growth, -100 = all killed); conditions: 10 µM
The panel holds about 83,000 compounds, 20% with a hit somewhere; the sample as a whole holds those more often.
measured.quantity: growth (%)
Reply with just the number (in %).

Worked cases, growth given:
// sample "O=C(/C=C/c1ccc(Cl)cc1Cl)c1nc2ccccc2n1Cc1ccc(F)cc1" , its growth was 76.2

// sample "CC[C@]12C=CCN3CC[C@@]4(c5ccc(OC)cc5N(C)[C@H]4[C@@](O)(C(=O)OC)[C@@H]1OC(=O)CCC[P+](c1ccc(F)cc1)(c1ccc(F)cc1)c1ccc(F)cc1)[C@@H]32" , its growth was -17.7

From here, focus on the item given below.
// sample "C=CC[Se]C(=O)c1cncc(C(=O)[Se]CC=C)c1" , its growth was -89.5

----------
system: K-562 leukemia; experiment: NCI-60 one-dose screen, 48 h (100 = growth as untreated, 0 = no growth, -100 = all killed); conditions: 10 µM
About 83,000 compounds went through this panel and 20% of them were active in at least one assay; those are over-represented in the sample as a whole. Activity calls are given as the source filed them. How the source made its calls: active means growth percent below 10; inactive means the rest.
measured.quantity: growth

Worked cases, growth given:
// sample "COc1cc(OC)c(S(=O)(=O)N(CCCl)CCCl)cc1C(=O)/C=C/c1ccc(C)cc1" , its growth was 70.9% (inactive)

// sample CC12OOC(C)(OO1)C2CCC(=O)OCCNc1ccnc2cc(Cl)ccc12 (stereo not drawn) , its growth was 3.42% (active)

New cases:
// sample "COC(=O)C[C@](O)(CCC(C)C)C(=O)O[C@H]1C(OC)=C[C@@]23CCCN2CCc2cc4c(cc2[C@@H]13)OCO4" , its growth was 4.01% (active)

// sample "COCCOCCOCCOc1ccc(-n2cc(-c3ccc(O[C@H]4O[C@@H]5OC6(C)CC[C@H]7[C@H](C)CC[C@@H]([C@H]4C)[C@@]57OO6)cc3)nn2)cc1" , its growth was 28.6% (inactive)

// sample "COC(=O)CCn1c(-c2ccc(-n3cc(-c4ccc(O[C@H]5O[C@@H]6OC7(C)CC[C@H]8[C@H](C)CC[C@@H]([C@H]5C)[C@@]68OO7)cc4)nn3)cc2)nc2ccccc21" , its growth was 21% (inactive)

// sample "CC(C)N=C([Se])NC(=O)c1cccs1" , its growth was 71% (inactive)

// sample "O=C(NC([Se])=NC1CCCCC1)c1ccc2c(c1)OCO2" , its growth was 74.3% (inactive)

// sample CC12OOC(C)(OO1)C2CCC(=O)NCCNc1ccnc2cc(Cl)ccc12 (stereo not drawn) , its growth was 39.4% (inactive)

----------
system: BT-549 breast; experiment: NCI-60 one-dose screen, 48 h (100 = growth as untreated, 0 = no growth, -100 = all killed); details: 10 µM
Compounds without any hit were thinned out: in the full panel of roughly 83,000, 20% have a hit.
Listed here are molecules together with their documented growth.
Reply with just the number (in %).

Worked cases, growth given:
// sample CC12OOC(C)(OO1)C2CCC(=O)OCCNc1ccnc2cc(Cl)ccc12 (stereo not drawn) , its growth was 93.1

// sample "CC12CCC3(CCC(=O)NCCCNc4ccnc5cc(Cl)ccc45)[C@@](C)(OO[C@]3(C)O1)O2" , its growth was -7.38

New cases:
// sample CC12OOC(C)(OO1)C2CCC(=O)NCCNc1ccnc2cc(Cl)ccc12 (stereo not drawn) , its growth was 106

----------
tested on: HL-60(TB) leukemia; test: NCI-60 one-dose screen, 48 h (100 = growth as untreated, 0 = no growth, -100 = all killed); conditions: 10 µM unless noted
The panel holds about 83,000 compounds, 20% with a hit somewhere; the sample as a whole holds those more often.
satisfied means recorded growth is 70% or above; not satisfied means it is below 70%.

[Q] Exam item: decide whether the reported growth for "Cc1cc(N=C2NC(=O)/C(=C/c3cc(C(C)(C)C)c(O)c(C(C)(C)C)c3)S2)n[nH]1" is at least 70%.
[A] not satisfied

[Q] Exam item: decide whether the reported growth for "COc1ccc(-c2cc(-c3cc(OC)c(OC)c(OC)c3)[nH]c(=O)c2C#N)cc1" is at least 70%.
[A] satisfied

[Q] Exam item: decide whether the reported growth for "COc1ccc(CN2[C@H](C(=O)NCc3ccc(C(=O)NO)cc3)Cc3c([nH]c4ccccc34)[C@H]2C2CC2)cc1" is at least 70%.
[A] not satisfied

[Q] Exam item: decide whether the reported growth for "O=C(CSc1nnc(-c2c[nH]c3ccccc23)n1-c1ccccc1)c1ccc(Br)cc1" is at least 70%.
[A] not satisfied

[Q] Exam item: decide whether the reported growth for "COc1cc(/C=C/C(=O)c2ccc(C)cc2)ccc1Oc1nc(Nc2ccc(F)cc2)nc(N(C)C)n1" is at least 70%.
[A] not satisfied

[Q] Exam item: decide whether the reported growth for "COc1ccc(/C=N/N=C(\C)c2ccc3c(c2)Nc2ccccc2S3)cc1O" is at least 70%.
[A] not satisfied

[Q] Exam item: decide whether the reported growth for O=C(/C=C/c1ccc(O)c(O)c1)NC1CCOC1O (stereo not drawn) is at least 70%.
[A] satisfied

[Q] Exam item: decide whether the reported growth for "c1ccc(-c2csc(Nc3cccc(Nc4nc(-c5ccccc5)cs4)c3)n2)cc1" is at least 70%.
[A] not satisfied

[Q] Exam item: decide whether the reported growth for "Cc1cc(=O)oc2cc(OCCCOc3ccc(/C=C/C(=O)Nc4ccccc4N)cc3)ccc12" is at least 70%.
[A] not satisfied

[Q] Exam item: decide whether the reported growth for "CC(=O)Oc1ccccc1C(=O)NC([Se])=NC1CCCCC1" is at least 70%.
[A] not satisfied

New cases:
[Q] Exam item: decide whether the reported growth for "COc1cc(/C=N/NC(=O)c2ccc3nc(-c4ccc(Cl)cc4)[nH]c3c2)cc(OC)c1OC" is at least 70%.
[A] not satisfied

[Q] Exam item: decide whether the reported growth for "CC(=O)Nc1cccc(-c2nc3cc(-c4ccc(O)cc4)ccc3n2C)c1" is at least 70%.
[A] not satisfied

[Q] Exam item: decide whether the reported growth for "CCCCCCCCc1ccc(C(=O)Nc2cccc(O)c2)cc1" is at least 70%.
[A] not satisfied

[Q] Exam item: decide whether the reported growth for Cc1cc(=O)oc2cc(OCC(O)CNN3C(=O)c4cccc5c(N6CCN(C)CC6)ccc(c45)C3=O)ccc12 (stereo not drawn) is at least 70%.
[A] satisfied

[Q] Exam item: decide whether the reported growth for CC1(C)CC[C@]2(C(=O)Nc3ccc(Br)cc3)CC[C@]3(C)C(=CCC4[C@@]5(C)C[C@@H](O)[C@H](O)[C@@](C)(CO)C5CC[C@]43C)C2C1 (stereo partly drawn) is at least 70%.
[A] not satisfied

[Q] Exam item: decide whether the reported growth for "CN1CCN(c2ccc(C(=O)/C=C/c3cc(Br)ccc3F)cc2)CC1" is at least 70%.
[A] not satisfied

[Q] Exam item: decide whether the reported growth for "O=C(c1ccccc1)c1ccc2nc(-c3cccc(Cl)c3)[nH]c2c1" is at least 70%.
[A] satisfied
